Target: T1, MRPP3 (Δ95) (human, UniProt O15091 96-583, del1-95)
T1 sequence: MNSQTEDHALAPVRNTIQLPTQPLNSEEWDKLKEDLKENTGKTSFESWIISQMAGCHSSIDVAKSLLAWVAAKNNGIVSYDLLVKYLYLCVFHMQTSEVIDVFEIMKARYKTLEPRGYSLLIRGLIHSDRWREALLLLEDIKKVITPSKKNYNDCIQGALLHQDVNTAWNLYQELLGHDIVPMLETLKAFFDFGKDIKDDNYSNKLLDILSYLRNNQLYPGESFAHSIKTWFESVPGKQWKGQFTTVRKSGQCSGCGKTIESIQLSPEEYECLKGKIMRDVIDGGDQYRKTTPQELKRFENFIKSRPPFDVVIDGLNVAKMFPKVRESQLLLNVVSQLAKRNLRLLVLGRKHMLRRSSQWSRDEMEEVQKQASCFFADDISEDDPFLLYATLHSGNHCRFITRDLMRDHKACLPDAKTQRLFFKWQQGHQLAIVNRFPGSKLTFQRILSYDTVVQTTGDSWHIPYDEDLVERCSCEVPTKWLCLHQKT
Test: fluorescence anisotropy
metric.name: Kd (µM)

{"columns": ["binder", "observed.value"],
 "data": [
  ["(mt)pre-tRNAVal7:0 (structured_RNA) RNA: GACGAACCAGAGUGUAGCUUAACACAAAGCACCCAACUUACACUUAGGAGAUUUCAACUUAACUUGACCGCUCUGA", 21.7]
]}
